- testedOn: HIV protease (Human immunodeficiency virus type 1 group M subtype B)

{"substanceSmiles": "C=C1CN(S(=O)(=O)c2ccc(C)cc2)CCCN(Cc2ccccc2)CCCN(S(=O)(=O)c2ccc(C)cc2)C1", "testedOn": "HIV protease (Human immunodeficiency virus type 1 group M subtype B)", "IC50 / µM": 40}

###

- Test system: HIV-1 Wejo
- testSummary: PBL/HIV-1 Wejo infection
- Format: cell-based
- conditionsUsed: Human immunodeficiency virus 1, Batch 1, A
pEC50: −log10 of the molar value.

{"compound": "C=C1CN(S(=O)(=O)c2ccc(C)cc2)CCCN(Cc2ccccc2)CCCN(S(=O)(=O)c2ccc(C)cc2)C1 [Compound 1]", "pEC50": 6.26}
